Structures can show the parent of a compound that is named as a salt.
Let's look at some compounds and their measured melting point.
assay metric: melting point

INSERT INTO measurements (compound, endpoint_result) VALUES
  ('Clc1ccc(-c2ccc(-c3nc4cc(C5=NCCN5)ccc4[nH]3)o2)cc1 (as salt: hydrochloride)', '262 to 269 °C'),
  ('N#Cc1ccc2[nH]c(-c3ccc(-c4ccc([N+](=O)[O-])cc4)o3)nc2c1', '242 to 246 °C'),
  ('N#C/C(=C\c1ccc(-c2ccc([N+](=O)[O-])cc2)o1)c1nc2ccccc2s1', '240 to 242 °C'),
  ('Cl.O=[N+]([O-])c1ccc(-c2ccc(-c3nc4ccc(C5=NCCN5)cc4s3)o2)cc1', '287 to 292 °C'),
  ('CC(C)NC(=N)c1ccc2nc(-c3ccc(-c4ccc([N+](=O)[O-])cc4)o3)sc2c1 (as salt: hydrochloride)', '201 to 206 °C'),
  ('N#Cc1ccc2nc(-c3ccc(-c4ccc(Cl)cc4)o3)sc2c1', '235 to 237 °C'),
  ('O=[N+]([O-])c1ccc(-c2ccc(-c3nc4cc(C5=NCCN5)ccc4[nH]3)o2)cc1 (as salt: hydrochloride)', '> 270 °C'),
  ('CC(C)NC(=N)c1ccc2nc(-c3ccc(-c4ccc(Cl)cc4)o3)sc2c1 (as salt: hydrochloride)', '204 to 208 °C'),
  ('N#C/C(=C\c1ccc(-c2ccc(Cl)cc2)o1)c1nc2ccccc2[nH]1', '292 to 294 °C'),
  ('CC(C)NC(=N)c1ccc2[nH]c(-c3ccc(-c4ccc([N+](=O)[O-])cc4)o3)nc2c1 (as salt: hydrochloride)', '> 270 °C'),
  ('N#C/C(=C\c1ccc(-c2ccc([N+](=O)[O-])cc2)o1)c1nc2ccccc2[nH]1', '273 to 274 °C'),
  ('Cl.Clc1ccc(-c2ccc(-c3nc4ccc(C5=NCCN5)cc4s3)o2)cc1', '293 to 297 °C'),
  ('N#Cc1ccc2nc(-c3ccc(-c4ccc([N+](=O)[O-])cc4)o3)sc2c1', '276 to 279 °C'),
  ('N#Cc1ccc2[nH]c(-c3ccc(-c4ccc(Cl)cc4)o3)nc2c1', '242 to 246 °C'),
  ('CC(C)NC(=N)c1ccc2[nH]c(-c3ccc(-c4ccc(Cl)cc4)o3)nc2c1 (as salt: hydrochloride)', '242 to 246 °C');
